Tested on: short-necked clam (Ruditapes philippinarum)
Test: Biological activity of short-necked clam (aqueduct extension score) in aqueous mineral solutions
Assay type: in vivo
Conditions: mineral 4.5 w/v %; saccharide 1 w/v %; total of 18 clams, 16 h
Experimental: Suitable region for biological activity of short-necked clam (Ruditapes philippinarum), as a fish or shellfish living in seawater, was examined by adding various saccharides to mineral aqueous solutions with various concentrations. In detail, solar salt (85% by weight of sodium chloride and 15% by weight of magnesium) as minerals was dissolved in running water kept in a container for two days to give final concentrations described in the following Table 1. […]
Judgment score for biological activity by entry:
MEASURED QUANTITY: Judgment score for biological activity

{"COMPOUND": "OC[C@H]1O[C@@H]2OC[C@H]3O[C@H](O[C@@H]4[C@@H](O)[C@@H](OC[C@H]5O[C@H](O[C@H]([C@H]2O)[C@@H]1O)[C@H](O)[C@@H](O)[C@@H]5O)O[C@H](CO)[C@H]4O)[C@H](O)[C@@H](O)[C@@H]3O [Cyclic tetrasaccharide, cyclic tetrasaccharide]", "MEASURED QUANTITY": "Judgment score for biological activity", "RESULT": 17}
{"COMPOUND": "OC[C@H]1O[C@H](O[C@H]2O[C@H](CO)[C@@H](O[C@H]3O[C@H](CO)[C@@H](O[C@H]4O[C@H](CO)[C@@H](O)[C@H](O)[C@H]4O)[C@H](O)[C@H]3O)[C@H](O)[C@H]2O)[C@H](O)[C@@H](O)[C@@H]1O", "MEASURED QUANTITY": "Judgment score for biological activity", "RESULT": 45}
{"COMPOUND": "OC[C@H]1O[C@@](CO)(O[C@H]2O[C@H](CO)[C@@H](O)[C@H](O)[C@H]2O)[C@@H](O)[C@@H]1O", "MEASURED QUANTITY": "Judgment score for biological activity", "RESULT": 21}
{"COMPOUND": "OC[C@H]1O[C@H](O[C@H]2[C@H](O)[C@@H](O)[C@@H](O[C@H]3[C@H](O)[C@@H](O)[C@@H](O[C@H]4[C@H](O)[C@@H](O)C(O)O[C@@H]4CO)O[C@@H]3CO)O[C@@H]2CO)[C@H](O)[C@@H](O)[C@@H]1O (stereo partly shown)", "MEASURED QUANTITY": "Judgment score for biological activity", "RESULT": 26}
